assay_info: folding stability dG unfold from chymotrypsin proteolysis; higher = more stable
If the reported folding stability dG unfold equals or exceeds 0.5 kcal/mol, assign 1. If not, assign -1.

Reference set, count: 3
SAGGSAGGSAGGKMKPVTIYIKNKDGSTAKLKVINGKVEITFPNGEKKTISAKDLKIYKSAGGSAGGSAGGS [r10_1176_TrROS_Hall] : 1
MKIKEVKVFPLPGENTIVILVTGEFDSFYIPETGKPIPSSAKITLIEVIKVPEDSDEAEVESSLLILPDAES [r1_147_TrMRF] : 1
SAMKAEVYILVYDKNGKLIAKIPIKAEEVLEDPEKFLETVKTVVEEFSGIGVKLKIYFPSTGKEVEIEASAG [r14_972_TrMRF] : 1

API: above_or_equal(metric=folding stability dG unfold, cutoff=0.5 kcal/mol) for item SAGGSAGGSAGGLVEQAVRAIREAKKAGLKEVVIYLSEEQKEAVKEAAEKEGLKVKIVPESAGGSAGGSAGG [r11_371_TrROS_Hall]
1

Does the sequence SAGGGTRTINFDSPEDAEDAIEDWPDWDKVTISVPSNGEPQSIPLKIKPPPPPKYKRDENGKPEPEPDSAGG [r13_183_TrROS] have recorded folding stability dG unfold that is 0.5 kcal/mol or more?
1

// inclusive: folding stability dG unfold at least 0.5 kcal/mol? input: SAGGSAGGSARIRFPNGYEIEVPRKRNPDGNLEITIESRNPDNPEHREMAKKIARDIADELSAGGSAGGSAG [r3_163_TrROS]
-1

Kindly determine if folding stability dG unfold recorded for SAGGSAGGPIVIKVKSLEEAKELVEKLAKELTPENVKVEIKEVFEPENSYYVVIEIKTASPEEESAGGSAGG [r6_72_TrMRF] is above or exactly 0.5 kcal/mol.
1

# check: folding stability dG unfold of NWYIDIDEIKEAINDAPPGDEVELPFKFYDPDDGQKFKFRVTVEVNPNGKLTSVRIQHPGSGKPHAEINLKS [r1_165_TrROS] is greater than or equal to 0.5 kcal/mol
1

Given SAGGSAGGSDDAVTFTFTSAPTRLLYLDNPKTFPGSATVTLPAGNPDEFRIERFAPDTAELKPSAGGSAGGS [r20_150_TrMRF] , state whether its folding stability dG unfold is at least 0.5 kcal/mol.
-1

Is the recorded value of folding stability dG unfold equal to or greater than 0.5 kcal/mol for this sequence? SAGGSAGGKKLEELKEKLKKLKPKPELEVEIKIVMSKEEAEKLAKELEKLPNIKKVRVEILEPDSAGGSAGG [r6_284_TrROS_Hall]
-1

Test whether the sequence SAGGSAGGSAGGSSKNRPLVIIDYPFYTSNPDYIVRATFINYLDENNNITEVKVEVLKASAGGSAGGSAGGS [r4_75_TrMRF] records folding stability dG unfold of 0.5 kcal/mol or higher.
1

Threshold query (folding stability dG unfold >= 0.5 kcal/mol) on SAGGSAGGSMTVDTTYDPSTDRVTLTVTIPAPDGSELVRTVQSTGDPEAAAAAAAAAVAAAAASAGGSAGGS [r20_33_JUSTAS]
-1
